Data origin: patent US12497393B2

Tested on: Pseudomonas aeruginosa
experimental protocol: Antibacterial activity MIC assay (two-fold dilution agar plating)
Type: cell-based
stated conditions: Pseudomonas aeruginosa ATCC 27853
Where a SMILES comes first, the peptide text is derived from it. Bridges are numbered along the chain shown (N, C = ends). [ ]: non-standard residue; d: D form. The star is where a group is joined. Heptanoyl(6-Me) = CC(C)CCCCC(=O)*; Dab = NCC[C@H](N)C(=O)O
experimental endpoint: Minimal Inhibitory Concentration (MIC) (µg/mL)
Lab book: enter the figure in µg/mL, no units written.

Below, 2 molecules whose answers are already recorded.
C=CCON=C(C(=O)NC1C(=O)N(OS(=O)(=O)O)C1(C)C)c1csc(N)n1 (stereo not shown) :: 64
CC1(C)[C@H](NC(=O)/C(=N\OC2(C(=O)O)CC2)c2nsc(N)n2)C(=O)N1OS(=O)(=O)O :: 16

# next molecule below
Ask: Given the entry CC(C)CCCCC(=O)N[C@@H](CCN)C(=O)N[C@H](C(=O)N[C@@H](CCN)C(=O)N[C@H]1CCNC(=O)[C@H]([C@@H](C)O)NC(=O)[C@H](CCN)NC(=O)[C@H](CCN)NC(=O)[C@H](CC(C)C)NC(=O)[C@@H](CC(C)C)NC(=O)[C@H](CCN)NC1=O)[C@@H](C)O [Colistin B, colistin B, reference compound] ({Heptanoyl(6-Me)}-[Dab]T[Dab][Dab][Dab][dL]L[Dab][Dab]T; lactam 4-C) , what Minimal Inhibitory Concentration (MIC) was observed with Pseudomonas aeruginosa?
Result: 4
